target: bacteriophage T4 DNA polymerase (Enterobacteria phage T4, UniProt P04415); construct: made in house; assay: Counter-screen against bacteriophage T4 DNA polymerase; type: biochemical; conditions: DRC-2; read at 10'; concentration 20
Sequence (P04415 whole entry): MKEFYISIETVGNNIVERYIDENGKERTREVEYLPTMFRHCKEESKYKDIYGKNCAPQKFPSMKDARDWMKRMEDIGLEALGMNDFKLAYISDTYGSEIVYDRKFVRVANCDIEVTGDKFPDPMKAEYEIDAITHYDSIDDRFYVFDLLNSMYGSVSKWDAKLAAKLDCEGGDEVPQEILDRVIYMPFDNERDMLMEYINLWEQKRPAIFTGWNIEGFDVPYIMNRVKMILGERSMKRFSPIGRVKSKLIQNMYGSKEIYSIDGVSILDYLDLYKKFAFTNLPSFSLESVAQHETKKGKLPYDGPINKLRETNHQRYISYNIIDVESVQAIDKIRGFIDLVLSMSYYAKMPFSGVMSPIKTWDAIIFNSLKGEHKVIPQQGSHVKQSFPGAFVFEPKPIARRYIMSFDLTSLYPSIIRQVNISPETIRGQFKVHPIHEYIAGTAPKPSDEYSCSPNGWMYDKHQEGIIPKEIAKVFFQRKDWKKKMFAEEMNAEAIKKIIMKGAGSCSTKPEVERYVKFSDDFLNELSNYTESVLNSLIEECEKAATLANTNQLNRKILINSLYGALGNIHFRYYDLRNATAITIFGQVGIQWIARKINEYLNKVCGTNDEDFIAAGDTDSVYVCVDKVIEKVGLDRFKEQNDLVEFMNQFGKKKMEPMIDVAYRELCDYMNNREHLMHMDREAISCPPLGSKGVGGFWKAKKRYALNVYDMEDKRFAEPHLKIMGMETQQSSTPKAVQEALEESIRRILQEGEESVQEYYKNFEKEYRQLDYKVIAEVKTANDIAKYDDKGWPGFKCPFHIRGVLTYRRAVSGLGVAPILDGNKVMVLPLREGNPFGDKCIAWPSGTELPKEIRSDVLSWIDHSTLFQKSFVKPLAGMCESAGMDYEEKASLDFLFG
reported_metric: % inhibition T4 10' 20 (%)

> print(dat)
                  compound.structure.string  measured
1               Nc1cc(Oc2ccc(O)c(N)c2)ccc1O        -7
2  N#Cc1c(O)nc(N2CCCCC2)nc1-c1ccc2c(c1)OCO2       -17
3        CCCc1ccc(Oc2coc3cc(OC)ccc3c2=O)cc1        -9
4  COc1ccccc1CC(=O)N1CCc2c(nc3cc(-c4ccccc4Cl)[nH]n3c2=O)C1       -50

* * *

molecular target: bacteriophage T4 DNA polymerase (Enterobacteria phage T4); construct: made in house; test: Counter-screen against bacteriophage T4 DNA polymerase; assay type: biochemical; conditions: DRC-1; read at 10'; concentration 10
Please use MET whenever % inhibition T4 10' 10 is not below 10%, and NOT MET whenever it is.

> print(dat)
                                   molecule  discrete.label
1  N#Cc1c(O)nc(N2CCCCC2)nc1-c1ccc2c(c1)OCO2 [KU0083146]         NOT MET
2  CC(C)CC(C(=O)O)N1C(=O)C2C3C=CC(C2C1=O)C1C(=O)N(C(CC(C)C)C(=O)O)C(=O)C31 (centres unmarked) [KU0193449]         NOT MET
3   Nc1cc(Oc2ccc(O)c(N)c2)ccc1O [KU0034728]             MET
4  Cc1ccc(N2CCC(NC(=O)Cc3cccs3)C2=O)cc1C (centres unmarked) [Molecule 57, O=C(NC1CCN(C1=O)c1ccc(c(c1)C)C)Cc1cccs1]             MET
5  O=C(CCc1csc(NC(=O)Nc2ccccc2)n1)Nc1nc2ccccc2s1 [KU0177354]             MET
6  Cc1nc(C)c2c(n1)N(CC1CCCCC1)C(=O)CC2 [KU0218606]         NOT MET
7  C#CC(C=CC)OC(=O)c1ccccc1C(=O)O (centres unmarked) [Molecule 61, CC=CC(OC(=O)c1ccccc1C(=O)O)C#C]             MET
8  Cc1cccc(-c2noc(C(=O)NNC(=O)C(Cl)(Cl)Cl)n2)c1 [KU0266208]         NOT MET

* * *

biological target: P. falciparum apicoplast DNA polymerase (Pf-apPOL) (Plasmodium falciparum, UniProt Q8ILY1); assay: Fluorescence-based high-throughput DNA polymerase assay (molecular beacon), primary screen and dose-response; assay type: biochemical; conditions: conc. 10; 5'; DRC-2
Sequence (Q8ILY1 entry or part of it): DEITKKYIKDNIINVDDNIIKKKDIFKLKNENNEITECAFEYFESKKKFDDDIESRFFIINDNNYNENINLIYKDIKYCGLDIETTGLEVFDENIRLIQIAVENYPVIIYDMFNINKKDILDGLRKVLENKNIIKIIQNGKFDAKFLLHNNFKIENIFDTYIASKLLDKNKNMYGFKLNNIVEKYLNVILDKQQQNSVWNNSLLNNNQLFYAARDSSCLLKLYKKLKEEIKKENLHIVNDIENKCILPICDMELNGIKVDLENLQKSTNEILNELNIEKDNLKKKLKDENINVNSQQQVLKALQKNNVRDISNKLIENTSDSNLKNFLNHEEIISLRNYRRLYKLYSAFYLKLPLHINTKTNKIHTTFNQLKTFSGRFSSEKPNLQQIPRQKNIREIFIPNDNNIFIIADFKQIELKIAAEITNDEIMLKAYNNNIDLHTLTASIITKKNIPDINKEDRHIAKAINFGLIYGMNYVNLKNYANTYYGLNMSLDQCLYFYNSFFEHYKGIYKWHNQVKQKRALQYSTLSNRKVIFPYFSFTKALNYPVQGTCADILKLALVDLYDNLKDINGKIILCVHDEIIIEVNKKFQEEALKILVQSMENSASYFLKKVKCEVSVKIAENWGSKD
The entries below come with measured % inhibition Apo pol 5' values attached.
reported_metric: % inhibition Apo pol 5' (%)

> print(dat)
                                   compound                               system.name          reported.metric  unit.annotation  measured
1  CCCCCCCCCCCC1SCC(C(=O)O)N1C(C)=O (centres unmarked)  P. falciparum apicoplast DNA polymerase (Pf-apPOL) (Plasmodium falciparum, UniProt Q8ILY1)  % inhibition Apo pol 5'                %        26
2  Cc1cc(C)cc(-n2nc3c(c2NC(=O)c2ccco2)CSC3)c1  P. falciparum apicoplast DNA polymerase (Pf-apPOL) (Plasmodium falciparum, UniProt Q8ILY1)  % inhibition Apo pol 5'                %        38
3  COc1ccc(C=C2Oc3c(ccc4c3CN(c3ccc5c(c3)OCO5)CO4)C2=O)cc1OC  P. falciparum apicoplast DNA polymerase (Pf-apPOL) (Plasmodium falciparum, UniProt Q8ILY1)  % inhibition Apo pol 5'                %        27
4  O=C1C(=Cc2ccncc2)Oc2c1ccc1c2CN(Cc2ccc3c(c2)OCO3)CO1  P. falciparum apicoplast DNA polymerase (Pf-apPOL) (Plasmodium falciparum, UniProt Q8ILY1)  % inhibition Apo pol 5'                %        35
5  Cc1cccc(-c2nnc3ccc(NS(=O)(=O)c4ccc(C)c(C)c4)nn23)c1  P. falciparum apicoplast DNA polymerase (Pf-apPOL) (Plasmodium falciparum, UniProt Q8ILY1)  % inhibition Apo pol 5'                %        22
